# System: TK-10 renal
# test-name: NCI-60 one-dose screen, 48 h (100 = growth as untreated, 0 = no growth, -100 = all killed)
# cond: 10 µM
# Protocol: Growth inhibition of the TK-10 human tumor cell line is measured as a screen for anti-cancer activity. Cells are grown in 96 well plates and exposed to the test compound for 48 hours. Compounds are tested at a single concentration, which is 10^-5 M for most compounds. The reported endpoint is percent growth (GI% or GIPRCNT), where numbers from 0 - 100% represent growth inhibition, and numbers from -100% - 0 represent cell death. For example, a value of 40 represents 60% growth inhibition. […]
Compounds without any hit were thinned out: in the full panel of roughly 83,000, 20% have a hit.
Here, each record is paired with measured growth data.
observable: growth (%)

compound: c1ccc(CP(Cc2ccccc2)c2ccccc2)cc1
observable: growth
unit-tag: %
val: 98.6
//
compound: O=C(Nc1cccc(-n2cc(-c3ccncc3)c(-c3cc(O)cc(Cl)c3)n2)c1)c1cc(C(F)(F)F)cc(C(F)(F)F)c1
observable: growth
unit-tag: %
val: 73
//
compound: CN(C)c1ccc(Cc2ccc(N(C)C)cc2Cl)c(Cl)c1
observable: growth
unit-tag: %
val: 88.9
//
compound: O=C(NC(Cc1ccc(O)cc1)C(=O)N=Nc1c(O)[nH]c2ccccc12)c1ccccc1 (stereo not given)
observable: growth
unit-tag: %
val: 97.7
//
compound: COc1cc(C(=O)N2CCN(c3ccccc3OC)CC2)c(N)cc1OCCCN1CCN(c2ccccc2OC)CC1
observable: growth
unit-tag: %
val: 113
//
compound: Cc1[nH]nc2c1C(c1cnn(C)c1)C(C#N)=C(N)O2 (stereo not given)
observable: growth
unit-tag: %
val: 102
//
compound: CN(C)CCS(=O)(=O)CCN(C)C
observable: growth
unit-tag: %
val: 103
//
compound: NC(=S)N=Nc1c(O)c2ccccc2c2ccccc12
observable: growth
unit-tag: %
val: 116
//
compound: CC(C)=CCc1cc(O)cc2c1OC(C=C(C)C)C1=C2C(=O)C2=C(C1=O)S(=O)(=O)CCN2 (stereo not given)
observable: growth
unit-tag: %
val: 122
//
compound: CS(=O)(=O)Nc1cccc(-c2cc(-c3ccccc3Cl)c(C#N)c(N)n2)c1
observable: growth
unit-tag: %
val: 63.5

* * *

# System: CCRF-CEM leukemia
# test-name: NCI-60 one-dose screen, 48 h (100 = growth as untreated, 0 = no growth, -100 = all killed)
# cond: 10 µM
About 83,000 compounds went through this panel and 20% of them were active in at least one assay; those are over-represented in the sample as a whole.
Lab note: anything with growth below 60% is marked y; values at 60% or higher are marked n.

molecule: CCN(CC)CCOc1nc2ccccc2c2c1-c1ccc(OC)cc1C2=O
target-or-test-system: CCRF-CEM leukemia
group-label: y

molecule: CNc1ncc(-c2ccc(C(F)(F)F)cc2)c(NC2CCCCCC2)n1
target-or-test-system: CCRF-CEM leukemia
group-label: n

molecule: COc1ccc2c(c1)O/C(=C\c1ccc([N+](=O)[O-])o1)C2=O
target-or-test-system: CCRF-CEM leukemia
group-label: y

molecule: COc1cc([C@@H]2c3cc4c(cc3C(Br)[C@H]3COC(=O)[C@H]23)OCO4)cc(OC)c1OC (stereo not given in full)
target-or-test-system: CCRF-CEM leukemia
group-label: y

molecule: O=C1ON=[N+](c2ccc(Cc3ccc([N+]4=NOC(=O)C4CN4CCOCC4)cc3)cc2)C1CN1CCOCC1 (stereo not given)
target-or-test-system: CCRF-CEM leukemia
group-label: n

molecule: COc1ccc([N+](=O)[O-])c(C(=O)O)c1
target-or-test-system: CCRF-CEM leukemia
group-label: n

molecule: Cc1cc(Nc2ccc(Cl)cc2)nc(NCCCNc2ccnc3cc(Cl)ccc23)n1
target-or-test-system: CCRF-CEM leukemia
group-label: y

molecule: CN1CC[C@@H](c2c(O)cc(O)c3c(=O)cc(-c4ccccc4Cl)oc23)[C@@H](O)C1
target-or-test-system: CCRF-CEM leukemia
group-label: y

molecule: Nc1nc(N)c(NC(=O)CNc2ccc(C(=O)O)cc2)c(N)n1
target-or-test-system: CCRF-CEM leukemia
group-label: n

molecule: CCN(CC)CCCC(C)Nc1nc(-c2ccc(OC)cc2)nc2cc(Cl)ccc12 (stereo not given)
target-or-test-system: CCRF-CEM leukemia
group-label: y

* * *

# Tested on: SF-268 CNS
# test-name: NCI-60 one-dose screen, 48 h
# cond: 10 µM
The panel holds about 83,000 compounds, 20% with a hit somewhere; the sample as a whole holds those more often. Active and inactive are the calls of the source. The calls were made as follows: active = growth percent below 10; inactive = the rest.
Possible outcomes: active, inactive

compound: COc1ccc(-c2nn(-c3cccc(NC(=O)c4ccc5c(c4)OCCO5)c3)cc2-c2ccncc2)cc1Cl
group-label: inactive
//
compound: COc1ccc2c(c1)O/C(=C\c1ccc([N+](=O)[O-])o1)C2=O
group-label: active
//
compound: CCCC(F)C(=O)O (stereo not given)
group-label: inactive
//
compound: O=C(c1cccs1)c1ccccc1Cc1ccccc1
group-label: inactive
//
compound: Nc1c(C(=O)Nc2cccc(Br)c2)sc2nc3c(cc12)C(O)CCC3 (stereo not given)
group-label: inactive
//
compound: O=C1ON=[N+](c2ccc(Cc3ccc([N+]4=NOC(=O)C4CN4CCOCC4)cc3)cc2)C1CN1CCOCC1 (stereo not given)
group-label: inactive
//
compound: O=C1OCC2=C1C(c1cccc(Cl)c1)c1cc3c(cc1N2CCO)CCC3 (stereo not given)
group-label: inactive
//
compound: COc1cc2nc(Nc3cccc(NC(C)=O)c3)nc(N)c2cc1OC
group-label: inactive
//
compound: C=C(Cl)[C@@](Cl)(CBr)CC[C@@H](Br)C(C)(C)Cl
group-label: active
//
compound: O=C1/C(=C\c2ccc(F)cc2)CN(C(=O)c2ccccc2)C/C1=C\c1ccc(F)cc1
group-label: inactive

* * *

# System: A498 renal
# test-name: NCI-60 one-dose screen, 48 h (100 = growth as untreated, 0 = no growth, -100 = all killed)
# cond: 10 µM
This is part of a sample that, as a whole, favours compounds with a hit. Of some 83,000 tested, about 20% had one in any assay.
Here, each record is paired with measured growth data.
observable: growth (%)

molecule: COc1ccc(-n2c(SCc3cc(OC)c(OC)c(OC)c3)nc3ccc(C)cc3c2=O)cc1
val: 38
--
molecule: COc1ccc(N2C(=O)C3c4[nH]c5ccc(OCc6ccccc6)cc5c4C4CCC(C(C)C)CC4C3C2=O)cc1 (stereo unspecified)
val: 105
--
molecule: Cn1c([N+](=O)[O-])cnc1/C=C1\Oc2ccc(Cl)cc2C1=O
val: 12.3
--
molecule: COc1cc(Cl)cc(-c2nn(-c3cccc(NC(=O)c4ccc(N5CCOCC5)c(C(F)(F)F)c4)c3)cc2-c2ccncc2)c1
val: 31.5
--
molecule: COc1ccc(C2=Nc3c(C)nn(-c4ccccc4)c3NC(c3ccc(Oc4ccnc5cc(Cl)ccc45)c(OC)c3)C2)cc1 (stereo unspecified)
val: 54.2
--
molecule: C=C(NC(=O)C(=C)NC(=O)c1csc(C2=NC3c4csc(n4)C4NC(=O)c5csc(n5)C(C(C)(O)C(C)O)NC(=O)C5CSC(=N5)/C(=C/C)NC(=O)C(C(C)O)NC(=O)c5csc(n5)C3(CC2)NC(=O)C(C)NC(=O)C(=C)NC(=O)C(=C)NC(=O)C(C(C)C)NC2C=Cc3c(C(C)O)cc(nc3C2O)C(=O)OC4C)n1)C(N)=O (stereo unspecified)
val: -30.3

* * *

Here, each record is paired with measured growth data.
# System: BT-549 breast
# test-name: NCI-60 one-dose screen, 48 h (100 = growth as untreated, 0 = no growth, -100 = all killed)
# cond: 10 µM
Compounds without any hit were thinned out: in the full panel of roughly 83,000, 20% have a hit. Calls of active or inactive are those of the source. Rule for the calls: active = growth percent below 10; inactive = the rest.
observable: growth

molecule: O=C(Nc1cccc(-n2cc(-c3ccncc3)c(-c3ccc(O)c(Cl)c3)n2)c1)c1cc(C(F)(F)F)cc(C(F)(F)F)c1
target-or-test-system: BT-549 breast
val: 79.7% (inactive)
--
molecule: CO/N=C(/C(=O)NC1C(=O)N2C(C(=O)O)=C(COC(N)=O)CSC12)c1ccco1 (centres undefined)
target-or-test-system: BT-549 breast
val: 108% (inactive)
--
molecule: O=C(NN1C(=O)CSC1c1ccc(Cl)cc1)c1cccnc1 (centres undefined)
target-or-test-system: BT-549 breast
val: 102% (inactive)
--
molecule: FC(F)(F)c1ccc(-c2cnc(-n3cc(COCCN4CCCCC4)nn3)nc2NC2CCCCCC2)cc1
target-or-test-system: BT-549 breast
val: 68.1% (inactive)
--
molecule: COc1ccc(N=C2C(=Nc3ccc(OC)cc3)N(c3ccc(N(C)C)cc3)C(=S)N2c2ccc(OC)cc2)cc1
target-or-test-system: BT-549 breast
val: 75.1% (inactive)
--
molecule: CSC1=NCCCC1
target-or-test-system: BT-549 breast
val: 108% (inactive)
--
molecule: C=C(NC(=O)C(=C)NC(=O)c1csc(C2=NC3c4csc(n4)C4NC(=O)c5csc(n5)C(C(C)(O)C(C)O)NC(=O)C5CSC(=N5)/C(=C/C)NC(=O)C(C(C)O)NC(=O)c5csc(n5)C3(CC2)NC(=O)C(C)NC(=O)C(=C)NC(=O)C(=C)NC(=O)C(C(C)C)NC2C=Cc3c(C(C)O)cc(nc3C2O)C(=O)OC4C)n1)C(N)=O (centres undefined)
target-or-test-system: BT-549 breast
val: -35.1% (active)
--
molecule: COc1cc(Nc2ncnc(Nc3ccc4c(n3)NC(=O)C(C)(C)O4)n2)cc(OC)c1OC
target-or-test-system: BT-549 breast
val: 33.7% (inactive)
--
molecule: COc1ccc(OC)c(/C=C/c2nc(SC)n(-c3ccc(Cl)cc3)n2)c1
target-or-test-system: BT-549 breast
val: 80% (inactive)
--
molecule: O=C1ON=[N+](c2ccc(Cc3ccc([N+]4=NOC(=O)C4CN4CCOCC4)cc3)cc2)C1CN1CCOCC1 (centres undefined)
target-or-test-system: BT-549 breast
val: 60.7% (inactive)
--
molecule: COc1ccc(/C=C2/CN(CCC#N)C/C(=C\c3ccc(OC)cc3)C2=O)cc1
target-or-test-system: BT-549 breast
val: 5.02% (active)
--
molecule: C=C1c2c(C)nn(-c3ccc(OC)cc3)c2N(C)C23C[C@@H]1C1(C)c4c(C)nn(-c5ccc(OC)cc5)c4N(C)C(C)(C[C@H]12)C3 (some centres undefined)
target-or-test-system: BT-549 breast
val: 32.9% (inactive)
--
molecule: COc1ccc(Oc2nc(NC3CCCC3)nc(Sc3ccc(OC)cc3)n2)cc1
target-or-test-system: BT-549 breast
val: 91.9% (inactive)
--
molecule: COc1cc(Nc2ccnc(NCCCNc3ccnc4cc(Cl)ccc34)n2)cc(OC)c1
target-or-test-system: BT-549 breast
val: 19.7% (inactive)
--
molecule: Nc1nc(N)c(NC(=O)CNc2ccc(C(=O)O)cc2)c(N)n1
target-or-test-system: BT-549 breast
val: 116% (inactive)
--
molecule: Fc1cc(C(F)(F)F)ccc1-c1cncnc1NC1CCCCCC1
target-or-test-system: BT-549 breast
val: 96% (inactive)
--
molecule: Cc1ccc(Nc2cc(C)nc(NCCCNc3ccnc4cc(Cl)ccc34)n2)cc1
target-or-test-system: BT-549 breast
val: -85.5% (active)
--
molecule: CN(Cc1ccccc1)Cc1ccc([N+](=O)[O-])cc1I
target-or-test-system: BT-549 breast
val: 87.7% (inactive)
--
molecule: Clc1cccc(-c2nc(-c3cccs3)no2)c1
target-or-test-system: BT-549 breast
val: 111% (inactive)
--
molecule: Nc1ncn([C@@H]2O[C@H](CO)[C@@H](O)[C@H]2O)c(=O)n1
target-or-test-system: BT-549 breast
val: 16.3% (inactive)
--
molecule: O=C1/C(=C\c2ccc(Br)cc2)CN(C(=O)c2ccccc2F)C/C1=C\c1ccc(Br)cc1
target-or-test-system: BT-549 breast
val: -0.615% (active)
--
molecule: COc1cc(/C=C2\CCCC3=C2N=C2SC=NN2C3c2cc(OC)c(OC)c(OC)c2)cc(OC)c1OC (centres undefined)
target-or-test-system: BT-549 breast
val: 37.9% (inactive)
--
molecule: CCOC(=O)C1(CC(C)C)CCOC1=O (centres undefined)
target-or-test-system: BT-549 breast
val: 105% (inactive)
--
molecule: CC(=O)OCc1cc(-c2nc3ccccc3[nH]c2=O)nn1-c1ccc(Cl)cc1
target-or-test-system: BT-549 breast
val: 102% (inactive)
--
molecule: Cc1cccc(C)c1NC(=O)c1sc2nc3c(cc2c1N)C(=O)CCC3
target-or-test-system: BT-549 breast
val: 90.7% (inactive)
--
molecule: CCN(CC)CCOc1nc2ccccc2c2c1-c1ccc(OC)cc1C2=O
target-or-test-system: BT-549 breast
val: 60.8% (inactive)
--
molecule: CSc1cc(SC)ncn1
target-or-test-system: BT-549 breast
val: 104% (inactive)
--
molecule: Cc1cccc(NC2=C(C#N)C(=O)NC3(CCCC3)S2)c1
target-or-test-system: BT-549 breast
val: 102% (inactive)
--
molecule: Cc1cc(N(CCCNc2ccnc3cc(Cl)ccc23)Cc2ccc3c(c2)OCO3)nc(N2CCCCC2)n1
target-or-test-system: BT-549 breast
val: -24% (active)
--
molecule: Cc1nc2ccc(CN(C)c3ccc(C(=O)N[C@@H](CCC(=O)O)C(=O)O)s3)cc2c(=O)[nH]1
target-or-test-system: BT-549 breast
val: 57.4% (inactive)
--
molecule: O=[N+]([O-])c1ccc(Oc2cc(Cl)c(Cl)cc2Cl)c(C(F)(F)F)c1
target-or-test-system: BT-549 breast
val: 110% (inactive)
--
molecule: O=C(C[n+]1ccccc1)c1ccc2ccccc2c1
target-or-test-system: BT-549 breast
val: 100% (inactive)
--
molecule: COc1cc(-c2cc(/C=C3\C(=O)Nc4cc(Cl)ccc43)[nH]n2)cc(OC)c1OC
target-or-test-system: BT-549 breast
val: 47.6% (inactive)
--
molecule: CN(CCc1ccccn1)c1ccccc1
target-or-test-system: BT-549 breast
val: 104% (inactive)
--
molecule: CCCCCC(=O)c1ccc(OCCCN2CCN(C(=O)OCC)CC2)cc1
target-or-test-system: BT-549 breast
val: 91.4% (inactive)
--
molecule: Cc1cccc2c1O/C(=C\c1ccc([N+](=O)[O-])o1)C2=O
target-or-test-system: BT-549 breast
val: -68.5% (active)
--
molecule: COc1ccc(-c2nc3ccccn3c2-c2nnc(-c3cc(OC)c(OC)c(OC)c3)o2)cc1
target-or-test-system: BT-549 breast
val: 42.7% (inactive)
--
molecule: COc1ccc(Cl)cc1C(=O)Nc1nc2ccc(Cl)cc2s1
target-or-test-system: BT-549 breast
val: 97.7% (inactive)
--
molecule: COc1ccc(NC2=NC(C)(CO)CS2)cc1 (centres undefined)
target-or-test-system: BT-549 breast
val: 98.4% (inactive)
